assay: Pharmacokinetics of anti-FRα antibodies in wild-type SCID mice; format: in vivo, mouse; details: 5 mg/kg iv bolus, total antibody
measured_parameter: Cmax

>  <molecule>
AB1370095: anti-FRα fully human IgG1 antibody; VH SEQ ID NO: 45, VL SEQ ID NO: 46 (antibody, V domains shown) VH: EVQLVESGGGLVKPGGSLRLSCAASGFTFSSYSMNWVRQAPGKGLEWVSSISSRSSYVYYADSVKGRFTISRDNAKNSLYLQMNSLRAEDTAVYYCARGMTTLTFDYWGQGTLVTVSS VL: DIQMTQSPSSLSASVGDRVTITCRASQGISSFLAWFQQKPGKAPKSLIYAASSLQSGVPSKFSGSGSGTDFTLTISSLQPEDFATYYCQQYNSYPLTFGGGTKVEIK

>  <measured_parameter>
Cmax

>  <reported_result>
123.2 µg/mL

$$$$
>  <molecule>
AB1370035: anti-FRα fully human IgG1 antibody; VH SEQ ID NO: 41, VL SEQ ID NO: 42 (antibody, V domains shown) VH: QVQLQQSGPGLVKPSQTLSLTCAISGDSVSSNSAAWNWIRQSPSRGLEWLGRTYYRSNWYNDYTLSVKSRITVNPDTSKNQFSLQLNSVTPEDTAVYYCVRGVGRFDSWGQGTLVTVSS VL: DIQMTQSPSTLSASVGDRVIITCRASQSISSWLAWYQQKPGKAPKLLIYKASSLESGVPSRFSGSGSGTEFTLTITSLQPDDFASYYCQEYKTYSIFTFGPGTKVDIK

>  <measured_parameter>
Cmax

>  <reported_result>
73.2 µg/mL

$$$$
>  <molecule>
AB1370026: anti-FRα fully human IgG1 antibody; VH SEQ ID NO: 39, VL SEQ ID NO: 40 (antibody, V domains shown) VH: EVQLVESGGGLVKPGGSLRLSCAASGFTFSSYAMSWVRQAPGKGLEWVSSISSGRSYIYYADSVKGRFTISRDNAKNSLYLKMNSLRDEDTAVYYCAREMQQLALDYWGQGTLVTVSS VL: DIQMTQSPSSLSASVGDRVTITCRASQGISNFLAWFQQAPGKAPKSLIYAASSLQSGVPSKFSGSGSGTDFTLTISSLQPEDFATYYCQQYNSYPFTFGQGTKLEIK

>  <measured_parameter>
Cmax

>  <reported_result>
91.7 µg/mL

$$$$
